assay: Approximate solubility by incremental addition of solvent; type: physicochemical; conditions: acetone, organic solvent or mixture, thermodynamic from solid, room temperature
PROPERTY_MEASURED: solubility

Q) Consider the compound shown here: CN1CCN(C[C@H]2COc3cc4ncnc(Nc5cccc(Br)c5F)c4cc3O2)CC1 [Amorphous form] What is its recorded solubility?
A) > 100 mg/mL

====

assay: Approximate solubility by incremental addition of solvent; type: physicochemical; details: ethanol/n-heptane (1/1, v/v), organic solvent or mixture, thermodynamic from solid, Ethanol/n-heptane (1/1), room temperature
PROPERTY_MEASURED: solubility

Q) For the molecule CN1CCN(C[C@H]2COc3cc4ncnc(Nc5cccc(Br)c5F)c4cc3O2)CC1 [Amorphous form] , what solubility is on record?
A) > 130 mg/mL
